target: Polyunsaturated fatty acid 5-lipoxygenase (Homo sapiens, UniProt P09917); test: In vitro 5-lipoxygenase inhibitory activity against calcium ionophore (A23187) induced LTB4 formation in human whole blood.
Sequence (P09917 whole entry): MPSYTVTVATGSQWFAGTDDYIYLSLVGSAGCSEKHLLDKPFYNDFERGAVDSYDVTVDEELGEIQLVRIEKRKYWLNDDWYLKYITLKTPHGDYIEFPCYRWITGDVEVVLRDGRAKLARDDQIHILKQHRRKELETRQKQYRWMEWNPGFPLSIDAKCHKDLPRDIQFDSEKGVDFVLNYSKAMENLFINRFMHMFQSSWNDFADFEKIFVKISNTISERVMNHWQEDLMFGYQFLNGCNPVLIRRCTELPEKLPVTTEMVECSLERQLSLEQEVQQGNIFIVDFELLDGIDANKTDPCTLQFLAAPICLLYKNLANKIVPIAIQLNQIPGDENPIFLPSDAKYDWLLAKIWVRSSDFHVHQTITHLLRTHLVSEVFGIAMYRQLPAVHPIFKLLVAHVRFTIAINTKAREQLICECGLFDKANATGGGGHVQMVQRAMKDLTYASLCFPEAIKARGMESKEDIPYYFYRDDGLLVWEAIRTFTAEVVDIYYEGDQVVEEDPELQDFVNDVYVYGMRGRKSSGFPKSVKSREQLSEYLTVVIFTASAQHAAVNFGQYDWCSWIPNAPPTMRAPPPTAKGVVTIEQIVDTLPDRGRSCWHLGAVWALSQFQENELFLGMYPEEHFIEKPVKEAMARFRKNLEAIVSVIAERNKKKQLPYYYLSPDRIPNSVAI
pIC50: −log10 of the molar value.
property-measured: pIC50

Example results:
compound	pIC50
Cc1cccc(N2CCNC(=O)N2)c1	5.70
CC1CN(c2ccccc2)NC(=O)N1 (centres undefined)	5.24
CC1CN(c2cccc(Cl)n2)NC(=O)N1 (centres undefined)	5.80
O=C1NCCN(c2cccc(F)n2)N1	5.52
CC1CN(c2cccc(F)c2)NC(=O)N1 (centres undefined)	5.74

I. O=C1NCCN(c2cccc(Cl)n2)N1
II. O=C1NCCN(c2cccc(OCc3ccccc3)c2)N1
III. O=C1NC(Oc2ccccc2)CN(c2ccccc2)N1 (centres undefined)
IV. CC1CN(c2ccccc2)NC(=O)N1O (centres undefined)
V. O=C1NCCN(c2cccc(-c3cccs3)n2)N1
Please rank these compounds by pIC50 in descending order. Give me the labels in the order the question wants.
II, III, I, IV, V
(II: 6.70, III: 5.59, I: 5.32, IV: 4.89, V: 4.43)

a. CC1CN(c2cccc(Cl)c2)NC(=O)N1O (centres undefined)
b. CSc1cccc(N2CCNC(=O)N2)c1
c. CC1CN(c2cccc(F)n2)NC(=O)N1 (centres undefined)
d. COCCOCC1CN(c2ccccc2)NC(=O)N1 (centres undefined)
Sort (4 compounds) by pIC50: min first. Give me the labels in the order the question wants.
d, c, a, b
(d: 4.62, c: 5.22, a: 5.44, b: 5.66)
